tested on: C653; experiment: Antineoplastic activity against C653 cell line in which [3H]-thymidine was incorporated into DNA; type: functional, Mus musculus; design: concentration or dose not given beside the values
Label satisfied when Control >= 7%; otherwise not satisfied.

Example entries begin here.
>>> df
                            chemical_smiles  qualitative_label
0  CCCCCCCCCCCCCCCCOC[C@H](COP(=O)([O-])OCC[N+](C)(C)C)OC      not satisfied
1  CCCCCCCCCCCCCCCCOC[C@@H](COP(=O)([O-])OCC[N+](C)(C)C)OC      not satisfied
2  CCCCCCCCCCCCCCCCOC[C@H](CS[C@H]1O[C@@H](CO)[C@@H](O)[C@H](O)[C@H]1O)OC          satisfied

Reported Control at or above 7%? CCCCCCCCCCCCCCCCOC[C@@H](CO[C@@H]1O[C@@H](CO)[C@@H](O)[C@H](O)[C@@H]1O)OC
satisfied

Item: CCCCCCCCCCCCCCCCOC[C@H](CS[C@@H]1O[C@@H](CO)[C@@H](O)[C@H](O)[C@H]1O)OC
satisfied

Just for reference, ChEMBL document CHEMBL1125051 is where these values come from.
